inhibition of growth at 30 µM listing for selected compounds.
# Tested on: MCF7
# Measurement description: Growth inhibition of human MCF7 cells at 30 uM after 72 hrs by MTT assay relative to control
# Type: functional
# Assay conditions: MCF7, 72 h, read-out: GI
The reply should be a number in %, with the unit left off.

input: Please give the measured inhibition of growth at 30 µM for this compound: CCC[C@H]1[C@@H]2CCc3cc(OCc4cn([C@H]5O[C@H](COC(C)=O)[C@@H](OC(C)=O)[C@H](OC(C)=O)[C@@H]5OC(C)=O)nn4)ccc3[C@H]2CC[C@]1(C)/C=N/O
output: 65.9

input: Please give the measured inhibition of growth at 30 µM for this compound: CCC[C@H]1[C@@H]2CCc3cc(OCc4cn([C@@H]5O[C@H](COC(C)=O)[C@H](OC(C)=O)[C@H](OC(C)=O)[C@H]5OC(C)=O)nn4)ccc3[C@H]2CC[C@]1(C)/C=N/O
output: 71.5

input: Please give the measured inhibition of growth at 30 µM for this compound: CCC[C@H]1[C@@H]2CCc3cc(OCc4cn([C@H]5O[C@H](COC(C)=O)[C@@H](OC(C)=O)[C@H](OC(C)=O)[C@@H]5OC(C)=O)nn4)ccc3[C@H]2CC[C@]1(C)CO
output: 54.3

input: Please give the measured inhibition of growth at 30 µM for this compound: CCC[C@H]1[C@@H]2CCc3cc(OCc4cn([C@@H]5O[C@H](COC(C)=O)[C@@H](OC(C)=O)[C@H](OC(C)=O)[C@H]5OC(C)=O)nn4)ccc3[C@H]2CC[C@]1(C)CO
output: 45.5

All values here come from ChEMBL document CHEMBL4014294.
